These entries and their values trace back to patent US9957257B2.

- target_or_test_system: recombinant human 5-HT4 receptor (Homo sapiens)
- Sequence (Q13639 whole entry): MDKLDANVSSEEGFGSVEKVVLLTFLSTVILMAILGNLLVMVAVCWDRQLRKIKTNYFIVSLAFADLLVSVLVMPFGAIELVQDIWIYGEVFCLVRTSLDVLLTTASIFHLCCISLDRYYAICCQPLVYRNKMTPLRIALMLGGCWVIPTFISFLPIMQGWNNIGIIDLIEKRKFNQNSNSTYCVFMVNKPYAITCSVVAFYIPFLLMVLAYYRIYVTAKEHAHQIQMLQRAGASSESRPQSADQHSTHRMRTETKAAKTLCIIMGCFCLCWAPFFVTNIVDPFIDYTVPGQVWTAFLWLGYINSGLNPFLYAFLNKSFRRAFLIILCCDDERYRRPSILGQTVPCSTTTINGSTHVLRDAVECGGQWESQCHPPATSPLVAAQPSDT
- procedure_text: Determination of EC50 values for 5-HT4 receptor (CHO cells, pCRE-Luc reporter)
- condition_details: luciferase reporter, 4 hours incubation, read-out: 5-HT4 receptor agonistic binding in-vitro EC50
pEC50: −log10 of the molar value.
observable: pEC50

{"compound": "Nc1c(Br)cc(C(=O)NCC2C3CN(CC4CCOCC4)CC23)c2c1CCCO2 (centres unmarked)", "reported_measurement": "8.30 to 8.96"}
{"compound": "Nc1c(Cl)cc(C(=O)NCC2CCN(CCF)CC2)c2c1CCCO2", "reported_measurement": "8.30 to 8.96"}
{"compound": "Nc1c(Cl)cc(C(=O)NCC2C3CN(CC4(O)CCOCC4)CC23)c2c1CCCO2 (centres unmarked)", "reported_measurement": "8.30 to 8.96"}
{"compound": "Nc1c(Cl)cc(C(=O)NCC2C3CN(C4CCOCC4)CC23)c2c1CCCO2 (centres unmarked)", "reported_measurement": "8.30 to 8.96"}
{"compound": "CC(C)(O)CN1CCC(F)(CNC(=O)c2cc(Cl)c(N)c3ccoc23)CC1", "reported_measurement": "8.00 to 8.29"}
